assay: Brønsted acid catalysed 8-endo cationic carbocyclisation of biphenyl-embedded enynes (C-C bond between tertiary carbocation from protonated alkene and distal alkyne carbon); TfOH 10 mol%, vinyl cation trapped by H2O (1.1 equiv) or internal nucleophile; settings: the molecule shown is the open-chain precursor; 8-membered ring; 1,2-dichloroethane; 50.0 mM; 60.0 °C; 2.0 h
Measurement Label: ring closure, isolated yield

INSERT INTO measurements (substance_smiles, result) VALUES
  ('CC#Cc1cc(OC)ccc1-c1ccccc1C=C(C)C', '70%'),
  ('CC#Cc1cc(Cl)ccc1-c1ccccc1C=C(C)C', '95%'),
  ('CC#Cc1ccccc1-c1ccccc1C=C(C)C', '99%'),
  ('CC#Cc1ccccc1-c1ccc(OC)cc1C=C(C)C', '82%'),
  ('CC#Cc1cc(OC)c(C)c(OC)c1-c1cc(Cl)ccc1C=C(C)C', '45%');

Could you now consider this next compound?
**Query** Can you share its ring closure, isolated yield? I mean this compound: `CC#Cc1ccccc1-c1cc(Cl)ccc1C=C(C)C`
**Result** 99%
